Each recorded value in this set is attributed to patent US8247211B2.

system: Enterococcus sp.; assay: In vitro antibacterial evaluation: minimum inhibitory concentration (MIC), broth dilution method; format: cell-based; settings: Enterococcus faecalis (GC 2242); 18 hours at 35° C.
ENDPOINT NAME: MIC Enterococcus faecalis (GC 2242) (µg/mL)
Value expressed in µg/mL; do not type the unit.

Examples from the recorded data:
{"COMPOUND": "CC(c1ccccc1)C1NC(=O)CNC(=O)C(CO)NC(=O)C(C(O)C2CNC(=N)N2C2OC(CO)C(O)C(O)C2O)NC(=O)C(C(O)C2CNC(=N)N2)NC(=O)C(Cc2ccc(OC3OC(CO)C(OC4OC5COC(c6ccc(C(=O)c7ccc(I)cc7)cc6)OC5C(O)C4O)C(O)C3O)cc2)NC1=O (centres unmarked)", "ENDPOINT NAME": "MIC Enterococcus faecalis (GC 2242)", "MEASUREMENT": 2}
{"COMPOUND": "CC(c1ccccc1)C1NC(=O)CNC(=O)C(CO)NC(=O)C(C(O)C2CNC(=N)N2C2OC(CO)C(O)C(O)C2O)NC(=O)C(C(O)C2CNC(=N)N2)NC(=O)C(Cc2ccc(OC3OC(CO)C(OC4OC(COCC=Cc5ccc(N(C)C)cc5)C(O)C(O)C4O)C(O)C3O)cc2)NC1=O (centres unmarked)", "ENDPOINT NAME": "MIC Enterococcus faecalis (GC 2242)", "MEASUREMENT": 64}
{"COMPOUND": "COc1ccc(COCC2OC(OC3C(CO)OC(Oc4ccc(CC5NC(=O)C(C(C)c6ccccc6)NC(=O)CNC(=O)C(CO)NC(=O)C(C(O)C6CNC(=N)N6C6OC(CO)C(O)C(O)C6O)NC(=O)C(C(O)C6CNC(=N)N6)NC5=O)cc4)C(O)C3O)C(O)C(O)C2O)cc1OCc1ccccc1 (centres unmarked)", "ENDPOINT NAME": "MIC Enterococcus faecalis (GC 2242)", "MEASUREMENT": 4}

Reported MIC Enterococcus faecalis (GC 2242) for CC(c1ccccc1)C1NC(=O)CNC(=O)C(CO)NC(=O)C(C(O)C2CN(Cc3ccc(C(F)(F)F)cc3)C(=N)N2C2OC(CO)C(O)C(O)C2O)NC(=O)C(C(O)C2CNC(=N)N2)NC(=O)C(Cc2ccc(OC3OC(CO)C(OC4OC5COC6(OC5C(O)C4O)C4CC5CC(C4)CC6C5)C(O)C3O)cc2)NC1=O (centres unmarked) was 16

MIC Enterococcus faecalis (GC 2242) recorded for this compound, COc1ccc2cc(COCC3OC(OC4C(CO)OC(Oc5ccc(CC6NC(=O)C(C(C)c7ccccc7)NC(=O)CNC(=O)C(CO)NC(=O)C(CC7CNC(=N)N7C7OC(CO)C(O)C(O)C7O)NC(=O)C(CC7CNC(=N)N7)NC6=O)cc5)C(O)C4O)C(O)C(O)C3O)ccc2c1 (centres unmarked) , is 16

Lab note: measured MIC Enterococcus faecalis (GC 2242) of CC(c1ccccc1)C1NC(=O)CNC(=O)C(CO)NC(=O)C(C(O)C2CNC(=N)N2C2OC(CO)C(O)C(O)C2O)NC(=O)C(C(O)C2CNC(=N)N2)NC(=O)C(Cc2ccc(OC3OC(CO)C(OC4OC(CO)C(OCC=C(c5ccccc5)c5ccccc5)C(O)C4O)C(O)C3O)cc2)NC1=O (centres unmarked) [Example 241a] was 4

----------
test system: Enterococcus sp.; experiment: In vitro antibacterial evaluation: minimum inhibitory concentration (MIC), broth dilution method; type: cell-based; details: broth dilution, inoculum 5×10^5 CFU/mL, 18 hours at 35° C.
ENDPOINT NAME: MIC Enterococcus faecalis (ATCC 29212) (µg/mL)
Please reply with the bare figure in µg/mL and do not write the unit itself.

{"COMPOUND": "CC(c1ccccc1)C1NC(=O)CNC(=O)C(CO)NC(=O)C(C(O)C2CNC(=N)N2C2OC(CO)C(O)C(O)C2O)NC(=O)C(C(O)C2CNC(=N)N2)NC(=O)C(Cc2ccc(OC3OC(CO)C(OC4OC5COC(c6cccc(Oc7ccccc7)c6)OC5C(O)C4O)C(O)C3O)cc2)NC1=O (stereo not shown)", "MIC Enterococcus faecalis (ATCC 29212) / µg/mL": 4}
{"COMPOUND": "COc1ccc2cc(COCC3OC(OC4C(CO)OC(Oc5ccc(CC6NC(=O)C(C(C)c7ccccc7)NC(=O)CNC(=O)C(CO)NC(=O)C(C(O)C7CNC(=N)N7C7OC(CO)C(O)C(O)C7O)NC(=O)C(C(O)C7CNC(=N)N7)NC6=O)cc5)C(O)C4O)C(O)C(O)C3O)ccc2c1 (stereo not shown)", "MIC Enterococcus faecalis (ATCC 29212) / µg/mL": 8}

Now look at this one.
Note to self: MIC Enterococcus faecalis (ATCC 29212) recorded for N=C1NCC(C(O)C2NC(=O)C(Cc3ccc(OC4OC(CO)C(OC5OC6COC7(OC6C(O)C5O)C5CC6CC(C5)CC7C6)C(O)C4O)cc3)NC(=O)C(Cc3ccccc3)NC(=O)CNC(=O)C(CO)NC(=O)C(C(O)C3CNC(=N)N3C3OC(CO)C(O)C(O)C3O)NC2=O)N1 (stereo not shown) was 2
